STUDY TARGET: acetylcholinesterase (AChE) (Homo sapiens, UniProt P22303)
Sequence (P22303 whole entry): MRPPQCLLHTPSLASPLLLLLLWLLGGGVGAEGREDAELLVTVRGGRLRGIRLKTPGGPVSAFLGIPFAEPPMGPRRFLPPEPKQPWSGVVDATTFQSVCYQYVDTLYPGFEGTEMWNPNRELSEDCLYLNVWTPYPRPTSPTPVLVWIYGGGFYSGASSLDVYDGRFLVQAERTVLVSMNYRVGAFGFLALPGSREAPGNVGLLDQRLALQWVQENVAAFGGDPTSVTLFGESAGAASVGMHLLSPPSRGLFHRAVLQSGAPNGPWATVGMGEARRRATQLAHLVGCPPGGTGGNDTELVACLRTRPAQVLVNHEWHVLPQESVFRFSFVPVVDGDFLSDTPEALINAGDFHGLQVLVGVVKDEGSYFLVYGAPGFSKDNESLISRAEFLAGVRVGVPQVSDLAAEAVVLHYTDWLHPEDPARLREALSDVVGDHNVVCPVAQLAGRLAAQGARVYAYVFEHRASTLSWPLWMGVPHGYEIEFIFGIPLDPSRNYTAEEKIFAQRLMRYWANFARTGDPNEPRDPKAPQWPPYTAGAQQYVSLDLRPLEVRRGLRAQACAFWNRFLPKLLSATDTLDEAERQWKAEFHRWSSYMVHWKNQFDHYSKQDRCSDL
TEST SUMMARY: Inhibition of human AchE at 100 uM relative to control
CONDITION DESCRIPTION: human AChE enzyme
READOUT KIND: inhibition at 100 µM (%)
Express the result in % but write the number alone.

Prompt: Give the measured inhibition at 100 µM for O=C1CCCC2=C1C(c1ccc(OCc3cccc(F)c3)c(Br)c1)C1=C(CCCC1=O)N2
Response: 39

====

TEST SUMMARY: Cytotoxicity against human SH-SY5Y cells by MTT assay
Assay type: cell-based
READOUT KIND: CC50

Prompt: Input COc1cc(C2C3=C(CCCC3=O)NC3=C2C(=O)CCC3)ccc1OCc1ccc(F)cc1 , output reported CC50.
Response: ≥ 100 µM

====

STUDY TARGET: Acetylcholinesterase (Homo sapiens, UniProt P22303)
Sequence (P22303 whole entry): as the sequence (P22303 whole entry) above
TEST SUMMARY: Inhibition of human AchE
READOUT KIND: pIC50
For clarity, pIC50 is expressed as the negative log10 of concentration in mol/L.

Prompt: Supply measured pIC50 of COc1cc(C2C3=C(CCCC3=O)NC3=C2C(=O)CCC3)ccc1OCc1ccc(F)cc1 in your reply.
Response: 3.90

====

STUDY TARGET: acetylcholinesterase (AChE) (Electrophorus electricus)
Sequence (O42275 whole entry): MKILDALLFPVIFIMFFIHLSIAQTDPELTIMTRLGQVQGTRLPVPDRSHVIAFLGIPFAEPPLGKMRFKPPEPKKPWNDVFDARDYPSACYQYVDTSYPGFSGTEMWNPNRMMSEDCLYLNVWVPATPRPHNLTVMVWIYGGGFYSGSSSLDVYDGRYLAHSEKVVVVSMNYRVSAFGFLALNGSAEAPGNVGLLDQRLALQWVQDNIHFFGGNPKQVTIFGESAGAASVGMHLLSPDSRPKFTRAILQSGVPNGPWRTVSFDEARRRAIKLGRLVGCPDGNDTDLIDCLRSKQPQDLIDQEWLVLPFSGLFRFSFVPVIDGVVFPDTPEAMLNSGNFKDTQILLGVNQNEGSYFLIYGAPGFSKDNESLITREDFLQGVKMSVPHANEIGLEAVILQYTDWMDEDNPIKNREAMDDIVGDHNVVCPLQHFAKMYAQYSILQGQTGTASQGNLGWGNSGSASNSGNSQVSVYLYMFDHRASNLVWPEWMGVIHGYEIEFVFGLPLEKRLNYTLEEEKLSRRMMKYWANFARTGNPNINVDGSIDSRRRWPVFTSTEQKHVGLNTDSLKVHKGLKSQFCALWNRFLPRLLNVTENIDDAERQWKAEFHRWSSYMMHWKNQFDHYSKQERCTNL
TEST SUMMARY: Inhibition of electric eel AchE at 100 uM using acetylthiocholine as substrate by Ellman's method relative to control
CONDITION DESCRIPTION: electric eel AChE enzyme, probe acetylthiocholine
READOUT KIND: inhibition at 100 µM (%)
Value expressed in %; do not type the unit.

>>> df
                                  structure          readout_kind  recorded_result
0  COc1cc(C2C3=C(CCCC3=O)N(C)C3=C2C(=O)CCC3)ccc1OCc1ccc(F)cc1  inhibition at 100 µM               33
1  COc1cc(C2C3=C(CCCC3=O)NC3=C2C(=O)CCC3)ccc1OS(=O)(=O)c1ccc(C)cc1  inhibition at 100 µM               15

Continue with the next molecule.
Prompt: Let me know recorded inhibition at 100 µM for COc1cc(C2C3=C(CCCC3=O)NC3=C2C(=O)CCC3)ccc1OCc1ccc(F)cc1 , thanks.
Response: 27

====

STUDY TARGET: Cholinesterase (Equus caballus)
Sequence (P81908 whole entry): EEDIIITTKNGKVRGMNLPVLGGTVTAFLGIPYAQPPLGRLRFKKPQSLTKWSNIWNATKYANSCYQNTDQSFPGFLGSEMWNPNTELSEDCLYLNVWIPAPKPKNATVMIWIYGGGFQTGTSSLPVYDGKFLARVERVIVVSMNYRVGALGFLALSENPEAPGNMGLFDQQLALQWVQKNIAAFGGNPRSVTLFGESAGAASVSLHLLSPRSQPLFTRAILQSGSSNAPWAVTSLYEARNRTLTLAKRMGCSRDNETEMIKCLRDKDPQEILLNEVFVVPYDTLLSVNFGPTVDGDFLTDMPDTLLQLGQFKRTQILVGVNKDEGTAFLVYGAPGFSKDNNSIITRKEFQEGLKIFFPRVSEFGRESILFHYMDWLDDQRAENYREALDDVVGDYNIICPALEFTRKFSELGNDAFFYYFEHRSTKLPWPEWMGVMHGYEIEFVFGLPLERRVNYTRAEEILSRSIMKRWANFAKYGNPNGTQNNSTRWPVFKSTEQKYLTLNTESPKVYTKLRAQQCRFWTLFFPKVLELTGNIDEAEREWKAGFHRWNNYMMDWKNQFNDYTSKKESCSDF
Friendly reminder: IC50 below 1000 nM is satisfied, at or above is not satisfied.

                                  structure                     study_target       category
0  O=C1CCCC2=C1C(c1ccc(OCc3ccccc3)c(Br)c1)C1=C(CCCC1=O)N2  Cholinesterase (Equus caballus)      satisfied
1  CN1C2=C(C(=O)CCC2)C(c2ccc(OCc3ccc(Cl)cc3)c(Cl)c2)C2=C1CCCC2=O  Cholinesterase (Equus caballus)  not satisfied
2  COc1cc(C2C3=C(CCCC3=O)NC3=C2C(=O)CCC3)ccc1OCc1ccc(F)cc1  Cholinesterase (Equus caballus)      satisfied
3  O=C1CCCC2=C1C(c1ccc(OCc3cccc(F)c3)c(Br)c1)C1=C(CCCC1=O)N2  Cholinesterase (Equus caballus)      satisfied
4  O=C1CCCC2=C1C(c1ccc(OCc3ccccc3)cc1)C1=C(CCCC1=O)N2  Cholinesterase (Equus caballus)  not satisfied

Prompt: Is 1000 nM strictly greater than the compound's reported IC50? compound: COc1cc(C2C3=C(CCCC3=O)N(C)C3=C2C(=O)CCC3)ccc1OCc1ccc(F)cc1
Response: not satisfied

Prompt: Quick check: does CCOc1cc(C2C3=C(CCCC3=O)NC3=C2C(=O)CCC3)ccc1OCc1ccccc1 have IC50 under 1000 nM?
Response: satisfied

Prompt: Does the reported IC50 of COc1cc(C2C3=C(CCCC3=O)NC3=C2C(=O)CCC3)ccc1OS(=O)(=O)c1ccc(C)cc1 stay below 1000 nM?
Response: satisfied
